The reported numbers originate from the Human Domainome abundance scans (Beltran et al. 2025).

B1: SAM and SH3 domain-containing protein 1, residues 630 to 700; numbered along this chain, O94885 (parent)
chain: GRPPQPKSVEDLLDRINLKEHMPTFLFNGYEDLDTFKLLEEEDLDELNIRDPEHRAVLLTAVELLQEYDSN

variants of: B1; experiment: abundance fitness (aPCA) (normalised: wild type 0, dead -1); higher = more abundant; growth selection in yeast, the domain comes from the species named; settings: Homo sapiens
Quick reference for abundance fitness among some variants
observable: abundance fitness

[[record]]
variant_string = "T24L"
observable = "abundance fitness"
numeric_value = -0.367

[[record]]
variant_string = "E53N"
observable = "abundance fitness"
numeric_value = -0.146

[[record]]
variant_string = "D34W"
observable = "abundance fitness"
numeric_value = -0.704

[[record]]
variant_string = "D32Y"
observable = "abundance fitness"
numeric_value = -0.776

[[record]]
variant_string = "L39A"
observable = "abundance fitness"
numeric_value = -0.881

[[record]]
variant_string = "M22H"
observable = "abundance fitness"
numeric_value = -0.313

[[record]]
variant_string = "F25L"
observable = "abundance fitness"
numeric_value = -0.266

[[record]]
variant_string = "R2L"
observable = "abundance fitness"
numeric_value = -0.246

[[record]]
variant_string = "H54I"
observable = "abundance fitness"
numeric_value = -0.458

[[record]]
variant_string = "L26G"
observable = "abundance fitness"
numeric_value = -0.697

[[record]]
variant_string = "L13C"
observable = "abundance fitness"
numeric_value = -0.946

[[record]]
variant_string = "L33H"
observable = "abundance fitness"
numeric_value = -0.791

[[record]]
variant_string = "L39G"
observable = "abundance fitness"
numeric_value = -0.812

[[record]]
variant_string = "E31S"
observable = "abundance fitness"
numeric_value = 0.196

[[record]]
variant_string = "D32Q"
observable = "abundance fitness"
numeric_value = -0.382

[[record]]
variant_string = "L33N"
observable = "abundance fitness"
numeric_value = -0.764

[[record]]
variant_string = "T24Q"
observable = "abundance fitness"
numeric_value = -0.544

[[record]]
variant_string = "V9G"
observable = "abundance fitness"
numeric_value = -0.868

[[record]]
variant_string = "H54A"
observable = "abundance fitness"
numeric_value = -0.169

[[record]]
variant_string = "T24G"
observable = "abundance fitness"
numeric_value = -0.713

[[record]]
variant_string = "F27T"
observable = "abundance fitness"
numeric_value = 0.341

[[record]]
variant_string = "F36G"
observable = "abundance fitness"
numeric_value = -0.642

[[record]]
variant_string = "H21M"
observable = "abundance fitness"
numeric_value = -0.085

[[record]]
variant_string = "E42P"
observable = "abundance fitness"
numeric_value = -0.124

[[record]]
variant_string = "D32S"
observable = "abundance fitness"
numeric_value = 0.094

[[record]]
variant_string = "A56R"
observable = "abundance fitness"
numeric_value = 0.191

[[record]]
variant_string = "L18A"
observable = "abundance fitness"
numeric_value = -0.804

[[record]]
variant_string = "R50W"
observable = "abundance fitness"
numeric_value = 0.003

[[record]]
variant_string = "D69Q"
observable = "abundance fitness"
numeric_value = -0.262

[[record]]
variant_string = "G29P"
observable = "abundance fitness"
numeric_value = -0.967

[[record]]
variant_string = "N48D"
observable = "abundance fitness"
numeric_value = 0.024

[[record]]
variant_string = "N71Q"
observable = "abundance fitness"
numeric_value = 0.121

[[record]]
variant_string = "Y30A"
observable = "abundance fitness"
numeric_value = -0.92

[[record]]
variant_string = "T60Y"
observable = "abundance fitness"
numeric_value = -0.449

[[record]]
variant_string = "R50G"
observable = "abundance fitness"
numeric_value = -0.371

[[record]]
variant_string = "G29D"
observable = "abundance fitness"
numeric_value = -0.837

[[record]]
variant_string = "E10S"
observable = "abundance fitness"
numeric_value = -0.423

[[record]]
variant_string = "P4R"
observable = "abundance fitness"
numeric_value = -0.198

[[record]]
variant_string = "I49N"
observable = "abundance fitness"
numeric_value = -0.926

[[record]]
variant_string = "P4A"
observable = "abundance fitness"
numeric_value = 0.046

[[record]]
variant_string = "E63K"
observable = "abundance fitness"
numeric_value = 0.244

[[record]]
variant_string = "K37L"
observable = "abundance fitness"
numeric_value = -0.555

[[record]]
variant_string = "E10N"
observable = "abundance fitness"
numeric_value = -0.53

[[record]]
variant_string = "Q66N"
observable = "abundance fitness"
numeric_value = 0.059

[[record]]
variant_string = "R2F"
observable = "abundance fitness"
numeric_value = -0.21

[[record]]
variant_string = "E42T"
observable = "abundance fitness"
numeric_value = 0.035

[[record]]
variant_string = "L64C"
observable = "abundance fitness"
numeric_value = 0.019

[[record]]
variant_string = "G1R"
observable = "abundance fitness"
numeric_value = -0.203

[[record]]
variant_string = "L44D"
observable = "abundance fitness"
numeric_value = -0.819

[[record]]
variant_string = "F36Y"
observable = "abundance fitness"
numeric_value = -0.878

[[record]]
variant_string = "L65K"
observable = "abundance fitness"
numeric_value = -0.812

[[record]]
variant_string = "L12N"
observable = "abundance fitness"
numeric_value = -0.794

[[record]]
variant_string = "F27C"
observable = "abundance fitness"
numeric_value = 0.272

[[record]]
variant_string = "L18Q"
observable = "abundance fitness"
numeric_value = -0.652

[[record]]
variant_string = "I16G"
observable = "abundance fitness"
numeric_value = -0.674

[[record]]
variant_string = "H54T"
observable = "abundance fitness"
numeric_value = -0.093

[[record]]
variant_string = "I49G"
observable = "abundance fitness"
numeric_value = -0.785

[[record]]
variant_string = "D14I"
observable = "abundance fitness"
numeric_value = -0.293

[[record]]
variant_string = "D51A"
observable = "abundance fitness"
numeric_value = -0.659

[[record]]
variant_string = "E40Y"
observable = "abundance fitness"
numeric_value = -0.829

[[record]]
variant_string = "V9D"
observable = "abundance fitness"
numeric_value = -0.736

[[record]]
variant_string = "V57P"
observable = "abundance fitness"
numeric_value = -0.484

[[record]]
variant_string = "D14T"
observable = "abundance fitness"
numeric_value = -0.086

[[record]]
variant_string = "P4T"
observable = "abundance fitness"
numeric_value = 0.101

[[record]]
variant_string = "D69K"
observable = "abundance fitness"
numeric_value = -0.29

[[record]]
variant_string = "E67C"
observable = "abundance fitness"
numeric_value = -0.3

[[record]]
variant_string = "E41H"
observable = "abundance fitness"
numeric_value = -0.7

[[record]]
variant_string = "E10K"
observable = "abundance fitness"
numeric_value = -0.407

[[record]]
variant_string = "H54D"
observable = "abundance fitness"
numeric_value = -0.02

[[record]]
variant_string = "P4S"
observable = "abundance fitness"
numeric_value = -0.03

[[record]]
variant_string = "P6W"
observable = "abundance fitness"
numeric_value = -0.092

[[record]]
variant_string = "F36V"
observable = "abundance fitness"
numeric_value = -0.495

[[record]]
variant_string = "R15T"
observable = "abundance fitness"
numeric_value = -0.164

[[record]]
variant_string = "R2A"
observable = "abundance fitness"
numeric_value = -0.489

[[record]]
variant_string = "E42Q"
observable = "abundance fitness"
numeric_value = -0.023

[[record]]
variant_string = "Y30L"
observable = "abundance fitness"
numeric_value = -0.557

[[record]]
variant_string = "H54L"
observable = "abundance fitness"
numeric_value = -0.849

[[record]]
variant_string = "P52V"
observable = "abundance fitness"
numeric_value = -0.5

[[record]]
variant_string = "P6T"
observable = "abundance fitness"
numeric_value = -0.653

[[record]]
variant_string = "N17I"
observable = "abundance fitness"
numeric_value = -0.851

[[record]]
variant_string = "L18Y"
observable = "abundance fitness"
numeric_value = -0.863

[[record]]
variant_string = "P3N"
observable = "abundance fitness"
numeric_value = -0.038

[[record]]
variant_string = "F25T"
observable = "abundance fitness"
numeric_value = -0.59

[[record]]
variant_string = "D11V"
observable = "abundance fitness"
numeric_value = -0.852

[[record]]
variant_string = "D11H"
observable = "abundance fitness"
numeric_value = -0.78

[[record]]
variant_string = "T35S"
observable = "abundance fitness"
numeric_value = 0.104

[[record]]
variant_string = "F36T"
observable = "abundance fitness"
numeric_value = -0.64

[[record]]
variant_string = "R15E"
observable = "abundance fitness"
numeric_value = -0.07

[[record]]
variant_string = "Q66E"
observable = "abundance fitness"
numeric_value = -0.623

[[record]]
variant_string = "R50Y"
observable = "abundance fitness"
numeric_value = -0.012

[[record]]
variant_string = "I16N"
observable = "abundance fitness"
numeric_value = -0.326

